# TARGET OR TEST SYSTEM: cAMP-dependent protein kinase type II-beta regulatory subunit (Homo sapiens) (UniProt P31323)
# Sequence (P31323 whole entry, looked up): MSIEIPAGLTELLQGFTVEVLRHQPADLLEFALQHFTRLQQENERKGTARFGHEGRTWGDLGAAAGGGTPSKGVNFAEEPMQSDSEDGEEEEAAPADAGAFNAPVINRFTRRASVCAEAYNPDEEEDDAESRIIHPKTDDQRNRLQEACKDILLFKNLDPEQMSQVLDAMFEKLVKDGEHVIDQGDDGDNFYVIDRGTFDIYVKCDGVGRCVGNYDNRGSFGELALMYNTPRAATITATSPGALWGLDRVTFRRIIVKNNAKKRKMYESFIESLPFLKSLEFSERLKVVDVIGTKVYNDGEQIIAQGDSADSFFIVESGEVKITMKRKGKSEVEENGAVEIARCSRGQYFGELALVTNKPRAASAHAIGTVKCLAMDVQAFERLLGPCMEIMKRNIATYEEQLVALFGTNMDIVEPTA
# METHOD DESCRIPTION: activators of PKA-R2B holoenzyme, dose response, selectivity assay for PKA-R1A activator project, biochemical, fluorescence polarization, EC50, human R2B (AID 504893)
# RUN CONDITIONS: Cy5-IP20 fluorescence polarization activation
pEC50: −log10 of the molar value.
OUTCOME MEASURE: pEC50

Solved cases below.
MOLECULE | ENDPOINT RESULT
Nc1ncnc2c1nc(Br)n2[C@@H]1O[C@@H]2COP(=O)(O)O[C@H]2[C@H]1O | 7.29
CCOP1(=O)OCC2OC(n3cnc4c(N)ncnc43)C(O)C2O1 (stereo not given) | 5.43

I. Nc1nc2c(nc(Br)n2[C@@H]2O[C@@H]3COP(=O)(O)O[C@H]3[C@H]2O)c(=O)[nH]1
II. CCCC(=O)Nc1ncnc2c1ncn2[C@@H]1O[C@@H]2OP(=O)(O)OC[C@H]2[C@H]1OC(=O)CCC
Between the entries labeled I and II , whose measured pEC50 is lower? Kindly state the label of the option you pick.
II
